B1: 2K2A (parent)
chain: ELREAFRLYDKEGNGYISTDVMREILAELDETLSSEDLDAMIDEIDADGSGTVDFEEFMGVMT

Variants of: B1
Run Description: folding stability dG (cDNA display proteolysis); higher = more stable
Condition Info: PBS, room temperature
Endpoint Name: folding stability dG
Lab note: write values as number then unit, every time.

Record Sequence	folding stability dG
ELREAFRLYDKEGNGYISTDVMREILAELDETLSSEDLDAMIDEIDADGSGTVDFEEFIGVMT [M59I]	2.03 kcal/mol
ELREAFRLYDKEGNGYISTDVMREILAELDETLSSEDLDAMIDEIDYDGSGTVDFEEFMGVMT [A47Y]	1.62 kcal/mol
ELREAFRLYDKEGNGYISTDVMREILAELDETLSSEDLDAMIDECDADGSGTVDFEEFMGVMT [I45C]	0.783 kcal/mol
ELREAFRLYDKEGNGYISTDVMREILAELDETLSSEDLDAMIDEIDADISGTVDFEEFMGVMT [G49I]	0.499 kcal/mol

Lab note: each variant below needs its folding stability dG filled in.
1. ELREAFRLYDKEGNGYISTLVMREILAELDETLSSEDLDAMIDEIDADGSGTVDFEEFMGVMT [D20L]
2. ERREAFRLYDKEGNGYISTDVMREILAELDETLSSEDLDAMIDEIDADGSGTVDFEEFMGVMT [L2R]
3. ELREAFRLYDKEGNGYISTDVMREILAELDETLSSEDLDAMIDEIDANGSGTVDFEEFMGVMT [D48N]
4. ELREAFRLYDKEGNGYISTDVMREILAELDETLSSEDLDAMISEIDADGSGTVDFEEFMGVMT [D43S]
5. ELREAFRLYDKEGNGYISTDVMREILAELDETLSSEDLDPMIDEIDADGSGTVDFEEFMGVMT [A40P]

Return:
["2.35 kcal/mol", "0.34 kcal/mol", "1.84 kcal/mol", "2.18 kcal/mol", "-0.715 kcal/mol"]

For every item in the list below, what is its measured folding stability dG?
1. ELREAFRLYDKEGNGYISTDVMREILPELDETLSSEDLDAMIDEIDADGSGTVDFEEFMGVMT [A27P]
2. ELREAFRLYDKEGNGYISTDVMREILAELDETLSSEDLDAMIDEIDADGKGTVDFEEFMGVMT [S50K]

Return:
-0.602 kcal/mol
1.78 kcal/mol

List reported folding stability dG for each of these variants:
1. NLREAFRLYDKEGNGYISTDVMREILAELDETLSSEDLDAMIDEIDADGSGTVDFEEFMGVMT [E1N]
2. LLREAFRLYDKEGNGYISTDVMREILAELDETLSSEDLDAMIDEIDADGSGTVDFEEFMGVMT [E1L]
3. ELREAFRLYDKEGNGYISTDVMREILAELDETLSSEDLDAMIDEIDADGSGTVDFEEFMGSMT [V61S]
4. ELREAFRLYDKTGNGYISTDVMREILAELDETLSSEDLDAMIDEIDADGSGTVDFEEFMGVMT [E12T]

Return:
2.25 kcal/mol
2.19 kcal/mol
1.26 kcal/mol
1.32 kcal/mol

For each entry beneath this line, provide reported folding stability dG.
1. ELREAFRLYDKEGNGYISTDVMREILAELDETLSSEDLDAMIDEIDADGSGTVFFEEFMGVMT [D54F]
2. ELREAFRLYDKEGNGYISTDVMREILAELDETLSSEDLDAMIDEIDADGSGTVDFDEFMGVMT [E56D]
3. ELREAFRLYDKEGNGYISTDVMREILAELDETLGSEDLDAMIDEIDADGSGTVDFEEFMGVMT [S34G]
4. ELREAFRLYDKEGNGYISTDVMREILAELDETLCSEDLDAMIDEIDADGSGTVDFEEFMGVMT [S34C]

Return:
1: 1.79 kcal/mol; 2: 1.84 kcal/mol; 3: 1.26 kcal/mol; 4: 1.2 kcal/mol
